Target: Sphingosine 1-phosphate receptor 1 (Homo sapiens, UniProt P21453)
Sequence (P21453 whole entry): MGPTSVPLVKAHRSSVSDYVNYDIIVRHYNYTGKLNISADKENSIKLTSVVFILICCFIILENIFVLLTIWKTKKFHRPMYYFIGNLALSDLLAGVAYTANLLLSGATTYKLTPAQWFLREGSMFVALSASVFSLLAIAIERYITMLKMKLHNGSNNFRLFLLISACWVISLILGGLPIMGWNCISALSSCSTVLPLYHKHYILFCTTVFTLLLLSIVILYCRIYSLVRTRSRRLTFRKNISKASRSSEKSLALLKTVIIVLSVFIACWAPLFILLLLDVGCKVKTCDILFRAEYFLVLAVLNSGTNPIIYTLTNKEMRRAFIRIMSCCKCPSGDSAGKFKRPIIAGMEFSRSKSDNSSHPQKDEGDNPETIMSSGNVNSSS
Assay: Agonist activity against human S1P1 by beta arrestin recruitment assay
Type: functional
The reader will find reported pEC50 values listed item by item below.
As a rule, pEC50 stands for the negative log10 of the concentration, concentration in M.

[
  {
    "Compound": "N#Cc1cc(OC(F)(F)F)cc(-c2nc(-c3ccc4c(c3)cc3n4CCC3CC(=O)O)no2)c1 (stereo in doubt; 23a)",
    "pEC50": 6.91
  }
]

Input line: Query pEC50 for N#Cc1cc(OC(F)(F)F)cc(-c2nc(-c3ccc4[nH]c5c(c4c3)CCC5CC(=O)O)no2)c1 (single isomer, unassigned)
Output line: 7.44

Input line: Query pEC50 for N#Cc1cc(OC(F)(F)F)cc(-c2nc(-c3ccc4[nH]c5c(c4c3)CCC5CC(=O)O)no2)c1 (stereo in doubt; 17a)
Output line: 7.26

Input line: Query pEC50 for N#Cc1cc(OC(F)(F)F)cc(-c2nc(-c3ccc4c(c3)cc3n4CCC3CC(=O)O)no2)c1 (single isomer, unassigned; enantiomer 2)
Output line: 8.32
